// data source = patent US5607937A

Assignment: determine reported concentration at 4 h for the given molecules.
# Protocol Summary: plasma concentration in rats after rectal administration
# Format: in vivo
# Test Parameters: plasma; rat, rectal 20 mg/kg, 240 min
Numbers only, in ng/mL.

Cl.Cl.N=C(N)c1cccc(C[C@H](NS(=O)(=O)c2ccc3ccccc3c2)C(=O)N2CCN(CCO)CC2)c1; 215

Proceed to the following item.
Exam item: Return the recorded concentration at 4 h value; entry: `CN(C)C(=O)N1CCN(C(=O)[C@H](Cc2cccc(C(=N)N)c2)NS(=O)(=O)c2ccc3ccccc3c2)CC1`
Marked response: 46

====

For each entry below, report its concentration at 4 h value.
# Protocol Summary: in vivo
# Test Parameters: plasma; rat, intraduodenal 100 mg/kg, 240 min
One number for each entry, in µg/mL.

// solved cases for concentration at 4 h follow
CC(=O)N1CCN(C(=O)[C@H](Cc2cccc(C(=N)N)c2)NS(=O)(=O)c2ccc3ccccc3c2)CC1.Cl; 2.19
CN(C)C(=O)N1CCN(C(=O)[C@H](Cc2cccc(C(=N)N)c2)NS(=O)(=O)c2ccc3ccccc3c2)CC1; 1.5

Exam item: Supply concentration at 4 h value. Item: `CS(=O)(=O)N1CCN(C(=O)[C@H](Cc2cccc(C(=N)N)c2)NS(=O)(=O)c2ccc3ccccc3c2)CC1.Cl`
Marked response: 0.53

====

Target or system factor Xa (Bos taurus); recorded quantity pKi.
Structures can show the parent of a compound that is named as a salt.
Numbers only, as −log10 of the molar value.

In the examples that follow, each entry is paired with its recorded pKi.
CC(=O)N1CCN(C(=O)C(Cc2cccc(C(=N)N)c2)NS(=O)(=O)c2ccc3ccccc3c2)CC1 (stereo not drawn); 4.32
CCCCCC(=O)N1CCN(C(=O)C(Cc2cccc(C(=N)N)c2)NS(=O)(=O)c2ccc3ccccc3c2)CC1 (stereo not drawn); 4.72

Exam item: Provide one value: measured pKi of Cc1c(C)c(S(=O)(=O)N[C@@H](Cc2cccc(C(=N)N)c2)C(=O)N2CCN(S(C)(=O)=O)CC2)c(C)c2c1OC(C)(C)CC2 [Compound 10, hydrochloride]
Marked response: 4.43

====

# Target Under Test: trypsin (Bos taurus)
# Sequence (P00760 24-246): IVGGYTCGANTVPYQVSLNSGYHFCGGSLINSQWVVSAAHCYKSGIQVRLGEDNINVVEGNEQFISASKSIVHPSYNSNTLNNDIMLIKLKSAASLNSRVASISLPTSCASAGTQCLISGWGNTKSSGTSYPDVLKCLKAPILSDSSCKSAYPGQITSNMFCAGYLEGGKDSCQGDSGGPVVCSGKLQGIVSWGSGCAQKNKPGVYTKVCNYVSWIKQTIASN
# Protocol Summary: inhibition of trypsin, dissociation constant Ki
# Format: biochemical
# Set-up: thrombin and the related enzymes trypsin, plasmin, factor Xa, factor XIIa
# Test Parameters: Table 1; read-out: Ki, Trypsin
Binary call on Ki with cut-off 70 nM: strictly below means MET, and equality or higher means NOT MET.

As a guide, the following entries are already answered.
Cl.Cl.N=C(N)c1cccc(C[C@H](NS(=O)(=O)c2ccc3ccccc3c2)C(=O)N2CCN(CCO)CC2)c1 [Compound 3, dihydrochloride]; NOT MET
N=C(N)c1cccc(CC(NS(=O)(=O)c2ccc3ccccc3c2)C(=O)N2CCN(C(=O)C3CC3)CC2)c1 (centres unmarked) [AMD 2-Naph CO-cPr]; MET
N=C(N)c1cccc(CC(NS(=O)(=O)c2ccc3ccccc3c2)C(=O)N2CCN(C(=O)Cc3cccs3)CC2)c1 (centres unmarked) [AMD 2-Naph drawing 11]; NOT MET

Exam item: Please let me know if COc1cc(C)c(S(=O)(=O)N[C@@H](Cc2cccc(C(=N)N)c2)C(=O)N2CCN(S(C)(=O)=O)CC2)c(C)c1C [Compound 9] shows Ki below 70 nM.
Marked response: NOT MET

Exam item: Dear colleague, could you confirm whether Ki of COc1cc(C)c(S(=O)(=O)N2CCN(C(=O)C(Cc3cccc(C(=N)N)c3)NS(=O)(=O)c3ccc4ccccc4c3)CC2)c(C)c1C (centres unmarked) [AMD 2-Naph SO2 -Mtr] falls below 70 nM? Thanks.
Marked response: NOT MET

Exam item: Field: below-cutoff. Rule: recorded Ki strictly less than 70 nM. Subject: NCc1cccc(CC(NS(=O)(=O)c2ccc3ccccc3c2)C(=O)N2CCN(c3ccccn3)CC2)c1 (centres unmarked) [Ame 2-Naph 2-Pyl]
Marked response: NOT MET

Exam item: Record CC1(C)C2CCC1(CS(=O)(=O)N[C@@H](Cc1cccc(C(=N)N)c1)C(=O)N1CCN(S(C)(=O)=O)CC1)C(=O)C2 (single isomer, unassigned) [Compound 8] : is its Ki strictly below 70 nM?
Marked response: NOT MET

Exam item: Quick check: does N=C(N)c1cccc(CC(NS(=O)(=O)c2ccc3ccccc3c2)C(=O)N2CCN(C(=O)C3CCC3)CC2)c1 (centres unmarked) [AMD 2-Naph CO-cBu] have Ki under 70 nM?
Marked response: MET

Exam item: In the record for Cc1c(C)c(S(=O)(=O)NC(Cc2cccc(C(=N)N)c2)C(=O)N2CCN(C(=O)N(C)C)CC2)c(C)c2c1OC(C)(C)CC2 (centres unmarked) [AMD Pmc CO-N(Me)2] , is Ki less than 70 nM?
Marked response: NOT MET

Exam item: Determine whether this compound shows Ki lower than 70 nM (ties excluded): CC(=O)N1CCN(C(=O)C(Cc2cccc(C(=N)N)c2)NS(=O)(=O)c2c(C(C)C)cc(C(C)C)cc2C(C)C)CC1 (centres unmarked) [AMD TIPP Ac]
Marked response: NOT MET

Exam item: Item N=C(N)c1cccc(CC(NS(=O)(=O)c2ccc3ccccc3c2)C(=O)N2CCN(c3ccccn3)CC2)c1 (centres unmarked) [AMD 2-Naph 2-Pyl] : Ki beneath 70 nM, strictly?
Marked response: MET

Exam item: Lab note: confirm whether the reported Ki for this compound is below 70 nM, equality not counting. compound: CC(=O)N1CCN(C(=O)C(Cc2cccc(C(=N)N)c2)NS(=O)(=O)c2c(C)c(C)c3c(c2C)CCC(C)(C)O3)CC1 (centres unmarked) [AMD Pmc Ac]
Marked response: NOT MET

Exam item: Decide: Ki of COCC(=O)N1CCN(C(=O)C(Cc2cccc(C(=N)N)c2)NS(=O)(=O)c2ccc3ccccc3c2)CC1 (centres unmarked) [AMD 2-Naph COCH2 OMe] strictly below 70 nM?
Marked response: MET

Exam item: Consider the compound N=C(N)c1cccc(CC(NS(=O)(=O)c2ccc3c(c2)C(=O)c2ccccc2C3=O)C(=O)N2CCN(C=O)CC2)c1 (centres unmarked) [AMD AC For] . Is its Ki strictly less than 70 nM?
Marked response: MET

Exam item: A record lists CN(C)C(=O)N1CCN(C(=O)C(Cc2cccc(C(=N)N)c2)NS(=O)(=O)c2ccc3ccccc3c2)CC1 (centres unmarked) [AMD 2-Naph CO-N(Me)2] . Is its Ki below 70 nM?
Marked response: MET

Exam item: Would you kindly verify if Ki of CN(C)C(=O)N1CCN(C(=O)[C@H](Cc2cccc(C(=N)N)c2)NS(=O)(=O)c2ccc3ccccc3c2)CC1 [Compound 6] is strictly less than 70 nM?
Marked response: NOT MET

Exam item: Hello, I'm reviewing records and need to know if Ki of N=C(N)c1cccc(CC(NS(=O)(=O)c2ccc3ccccc3c2)C(=O)N2CCN(c3ncccn3)CC2)c1 (centres unmarked) [AMD 2-Naph 2-Pym] is below 70 nM. Could you check?
Marked response: MET

====

# Target Under Test: UniProtKB P00747
# Sequence (P00747 581-810 limits assumed): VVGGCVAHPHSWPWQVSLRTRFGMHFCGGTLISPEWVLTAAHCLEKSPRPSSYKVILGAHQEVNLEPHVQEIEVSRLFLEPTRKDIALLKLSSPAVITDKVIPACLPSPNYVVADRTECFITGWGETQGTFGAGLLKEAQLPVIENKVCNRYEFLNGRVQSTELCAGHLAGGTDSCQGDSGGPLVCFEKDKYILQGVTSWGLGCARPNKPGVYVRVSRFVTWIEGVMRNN
# Sequence (P00747 97-580 partner limits assumed): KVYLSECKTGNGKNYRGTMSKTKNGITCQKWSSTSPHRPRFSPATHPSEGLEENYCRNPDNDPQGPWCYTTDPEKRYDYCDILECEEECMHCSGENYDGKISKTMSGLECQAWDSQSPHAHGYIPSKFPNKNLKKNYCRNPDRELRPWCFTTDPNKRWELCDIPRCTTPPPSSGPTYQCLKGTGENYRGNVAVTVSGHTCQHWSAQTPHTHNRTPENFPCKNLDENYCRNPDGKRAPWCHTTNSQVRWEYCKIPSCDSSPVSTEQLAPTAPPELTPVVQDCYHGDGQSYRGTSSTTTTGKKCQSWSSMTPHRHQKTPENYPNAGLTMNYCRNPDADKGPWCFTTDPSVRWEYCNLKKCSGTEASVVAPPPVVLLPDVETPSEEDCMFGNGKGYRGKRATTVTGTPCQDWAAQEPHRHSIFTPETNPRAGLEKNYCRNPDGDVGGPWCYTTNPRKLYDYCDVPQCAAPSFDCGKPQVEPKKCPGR
# Protocol Summary: inhibition of plasmin, dissociation constant Ki
# Test Parameters: read-out: Ki, Plasmin; Table 1
Provide the recorded pKi for the entries that follow.
One number for each entry, as −log10 of the molar value.

Some entries whose results are on file:
CCCCCC(=O)N1CCN(C(=O)C(Cc2cccc(C(=N)N)c2)NS(=O)(=O)c2ccc3ccccc3c2)CC1 (stereo not shown); 5.59
Cc1ccc(S(=O)(=O)N2CCN(C(=O)C(Cc3cccc(C(=N)N)c3)NS(=O)(=O)c3ccc4ccccc4c3)CC2)cc1 (stereo not shown); 4.82
CS(=O)(=O)N1CCN(C(=O)C(Cc2cccc(C(=N)N)c2)NS(=O)(=O)c2ccc3ccccc3c2)CC1 (stereo not shown); 4.92

Exam item: Let me know recorded pKi for COc1cc(C)c(S(=O)(=O)NC(Cc2cccc(C(=N)N)c2)C(=O)N2CCN(S(C)(=O)=O)CC2)c(C)c1C (stereo not shown) , thanks.
Marked response: 4.74

====

Field: concentration at 5 min. Provide a value for each of the compounds that follow.
# Protocol Summary: plasma concentration in rats after intravenous administration
# Type: in vivo
# Test Parameters: plasma, iv; rat, i.v. 1 mg/kg, 5 min
Give bare numbers, in ng/mL.

CN(C)C(=O)N1CCN(C(=O)[C@H](Cc2cccc(C(=N)N)c2)NS(=O)(=O)c2ccc3ccccc3c2)CC1; 823
CC(=O)N1CCN(C(=O)[C@H](Cc2cccc(C(=N)N)c2)NS(=O)(=O)c2ccc3ccccc3c2)CC1.Cl; 780

Now look at this one.
Exam item: Find the measured concentration at 5 min of `Cl.Cl.N=C(N)c1cccc(C[C@H](NS(=O)(=O)c2ccc3ccccc3c2)C(=O)N2CCN(CCO)CC2)c1` and report it.
Marked response: 2210

====

# Tested on: coagulation in human plasma
# Protocol Summary: thrombin time (TT) in human plasma
Where a name gives a salt, the structure may show the parent alone.
Readout Name: Concentr. to double the Thrombin time (µmol/L)
Give bare numbers, in µmol/L.

Cc1c(C)c(S(=O)(=O)N[C@@H](Cc2cccc(C(=N)N)c2)C(=O)N2CCN(S(C)(=O)=O)CC2)c(C)c2c1OC(C)(C)CC2 [Compound 10, hydrochloride]; 0.10
CC1(C)C2CCC1(CS(=O)(=O)N[C@@H](Cc1cccc(C(=N)N)c1)C(=O)N1CCN(S(C)(=O)=O)CC1)C(=O)C2 (single isomer, unassigned) [Compound 8]; 0.13
CC1(C)C2CCC1(CS(=O)(=O)N[C@@H](Cc1cccc(C(=N)N)c1)C(=O)N1CCN(S(C)(=O)=O)CC1)C(=O)C2 (single isomer, unassigned) [Compound 7]; 0.075

Now consider the entry below.
Exam item: Consider the compound `CN(C)C(=O)N1CCN(C(=O)[C@H](Cc2cccc(C(=N)N)c2)NS(=O)(=O)c2ccc3ccccc3c2)CC1` and give its recorded Concentr. to double the Thrombin time.
Marked response: 0.042
